Target: Recombinant human-derived ALK (Homo sapiens, UniProt Q9UM73)
Construct: BAG10812.1; 1058-1620 (terminal) amino acids; GST (N); made in house
Sequence (Q9UM73 1058-1620): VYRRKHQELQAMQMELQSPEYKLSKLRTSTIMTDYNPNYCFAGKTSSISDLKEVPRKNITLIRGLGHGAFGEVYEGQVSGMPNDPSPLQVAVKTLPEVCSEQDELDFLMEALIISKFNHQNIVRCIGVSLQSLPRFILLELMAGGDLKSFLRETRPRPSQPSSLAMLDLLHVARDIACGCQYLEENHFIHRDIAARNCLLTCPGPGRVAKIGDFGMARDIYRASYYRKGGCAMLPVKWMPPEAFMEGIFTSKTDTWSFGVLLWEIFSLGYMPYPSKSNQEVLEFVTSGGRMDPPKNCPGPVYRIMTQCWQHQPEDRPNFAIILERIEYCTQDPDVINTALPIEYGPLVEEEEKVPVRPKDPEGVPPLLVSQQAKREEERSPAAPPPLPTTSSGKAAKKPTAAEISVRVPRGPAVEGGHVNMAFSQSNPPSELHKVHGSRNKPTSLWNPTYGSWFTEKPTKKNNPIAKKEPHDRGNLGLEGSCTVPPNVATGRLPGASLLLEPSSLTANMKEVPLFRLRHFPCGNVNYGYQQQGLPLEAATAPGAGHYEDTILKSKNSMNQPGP
Test: Inhibitory activity of compounds against ALK kinase (time-resolved fluorescence resonance energy transfer)
Assay type: biochemical
Conditions: 30 μM ATP, 50 nM ULight-poly GT peptide
Where a name gives a salt, the structure may show the parent alone.
endpoint: IC50 (nM)

Examples from the recorded data:
[
  {
    "molecule": "Cc1cc(Nc2ncc(Cl)c(Nc3ccccc3S(=O)(=O)C(C)C)n2)c(OC(C)C)cc1C1CCN(C(=O)COc2ccc3occ(C4CCC(=O)NC4=O)c3c2)CC1 (stereo not shown) [WX003]",
    "target-or-system": "Recombinant human-derived ALK (Homo sapiens, UniProt Q9UM73)",
    "IC50 / nM": 33.8
  },
  {
    "molecule": "Cc1cc(Nc2ncc(Cl)c(Nc3ccccc3S(=O)(=O)C(C)C)n2)c(OC(C)C)cc1C1CCN(CC(=O)NCc2ccc3c(ccc4occ(C5CCC(=O)NC5=O)c43)c2)CC1 (stereo not shown) [WX002 hydrochloride]",
    "target-or-system": "Recombinant human-derived ALK (Homo sapiens, UniProt Q9UM73)",
    "IC50 / nM": 15.6
  }
]

[1] Cc1cc(Nc2ncc(Cl)c(Nc3ccccc3S(=O)(=O)C(C)C)n2)c(OC(C)C)cc1C1CCN(CC(=O)NCCOc2ccc3occ(C4CCC(=O)NC4=O)c3c2)CC1 (stereo not shown) [WX001]
[2] Cc1cc(Nc2ncc(Cl)c(Nc3ccccc3S(=O)(=O)C(C)C)n2)c(OC(C)C)cc1C1CCN(CCOc2ccc3occ(C4CCC(=O)NC4=O)c3c2)CC1 (stereo not shown) [WX006]
[ask] Would you kindly point out which of 1 and 2 has the smaller IC50 figure? Your answer should be the label attached to the chosen record.
[reply] 2
(2: 12.2 nM, 1: 21.8 nM)

====

System: human acute myeloid leukemia cell MV4-11
Experiment: Anti-proliferative effect in human acute myeloid leukemia cell MV4-11 (CellTiter-Glo)
Type: cell-based
Conditions: MV4-11, 96 h, cell proliferation, incubated for 4 days
pIC50: −log10 of the molar value.
endpoint: pIC50

[
  {
    "compound": "Cc1sc2c(c1C)C(c1ccc(Cl)cc1)=N[C@@H](CC(=O)NCCCCOc1ccc3occ(C4CCC(=O)NC4=O)c3c1)c1nnc(C)n1-2 (stereo partly drawn) [WX060]",
    "target-or-system": "human acute myeloid leukemia cell MV4-11",
    "endpoint": "pIC50",
    "result": 7.77
  },
  {
    "compound": "Cc1sc2c(c1C)C(c1ccc(Cl)cc1)=N[C@@H](CC(=O)NCCOCCOc1ccc3c(ccc4occ(C5CCC(=O)NC5=O)c43)c1)c1nnc(C)n1-2 (stereo partly drawn) [WX011]",
    "target-or-system": "human acute myeloid leukemia cell MV4-11",
    "endpoint": "pIC50",
    "result": 7.13
  },
  {
    "compound": "Cc1sc2c(c1C)C(c1ccc(Cl)cc1)=N[C@@H](CC(=O)NCCOCCOCCOc1ccc3c(ccc4occ(C5CCC(=O)NC5=O)c43)c1)c1nnc(C)n1-2 (stereo partly drawn) [WX008]",
    "target-or-system": "human acute myeloid leukemia cell MV4-11",
    "endpoint": "pIC50",
    "result": 7.65
  },
  {
    "compound": "Cc1sc2c(c1C)C(c1ccc(Cl)cc1)=N[C@@H](CC(=O)NCCOc1ccc3occ(C4CCC(=O)NC4=O)c3c1)c1nnc(C)n1-2 (stereo partly drawn) [WX059]",
    "target-or-system": "human acute myeloid leukemia cell MV4-11",
    "endpoint": "pIC50",
    "result": 7.78
  }
]

[P] Cc1sc2c(c1C)C(c1ccc(Cl)cc1)=N[C@@H](CC(=O)NCCOc1ccc3c(ccc4occ(C5CCC(=O)NC5=O)c43)c1)c1nnc(C)n1-2 (stereo partly drawn) [WX007]
[Q] Cc1sc2c(c1C)C(c1ccc(Cl)cc1)=N[C@@H](CC(=O)NCCCCCCNc1ccc3c(ccc4occ(C5CCC(=O)NC5=O)c43)c1)c1nnc(C)n1-2 (stereo partly drawn) [WX009]
[ask] Would you kindly point out which of P and Q has the smaller pIC50 figure? Your answer should be the label attached to the chosen record.
[reply] P

====

Tested on: human acute myeloid leukemia cell MV4-11
Test: Anti-proliferative effect in human acute myeloid leukemia cell MV4-11 (CellTiter-Glo)
Type: cell-based
Conditions: MV4-11, 96 h, cell proliferation, incubated for 4 days
pIC50: −log10 of the molar value.
endpoint: pIC50

Examples from the recorded data:
[
  {
    "compound": "Cc1sc2c(c1C)C(c1ccc(Cl)cc1)=N[C@@H](CC(=O)NCCCOc1ccc3occ(C4CCC(=O)NC4=O)c3c1)c1nnc(C)n1-2 (stereo partly shown)",
    "pIC50": 7.95
  },
  {
    "compound": "Cc1sc2c(c1C)C(c1ccc(Cl)cc1)=N[C@@H](CC(=O)NCCCCCCOc1ccc3c(ccc4occ(C5CCC(=O)NC5=O)c43)c1)c1nnc(C)n1-2 (stereo partly shown)",
    "pIC50": 7.15
  }
]

[P] Cc1sc2c(c1C)C(c1ccc(Cl)cc1)=N[C@@H](CC(=O)NCCNc1ccc3c(ccc4occ(C5CCC(=O)NC5=O)c43)c1)c1nnc(C)n1-2 (stereo partly shown)
[Q] Cc1sc2c(c1C)C(c1ccc(Cl)cc1)=N[C@@H](CC(=O)NCCCNC(=O)COc1ccc3occ(C4CCC(=O)NC4=O)c3c1)c1nnc(C)n1-2 (stereo partly shown)
[ask] Returns: the argument ( P or Q ) having the larger pIC50. Your answer should be the label attached to the chosen record.
[reply] Q

====

Assay: Pharmacokinetics of the compound in mice
Type: in vivo, C57BL/6 (C57) mice
Conditions: male, C57BL/6, mouse, plasma, intravenous injection (2 mg/kg)
Excerpt: In this study, C57BL male mice were selected as assay animals, and the LC/MS/MS method was used to quantitatively determine the compound concentration at different time points in the plasma of mice administered intravenously or orally with the assay compound, so as to evaluate pharmacokinetic profile of the assay compound in mice. C57BL/6 (C57) mice (male, 17-20 g, 7-10 weeks old, from Shanghai lingchang). […]
endpoint: half-life (min)
Write down the numeric answer in min and omit the unit.

Kindly note the recorded half-life for Cc1cc(Nc2ncc(Cl)c(Nc3ccccc3S(=O)(=O)C(C)C)n2)c(OC(C)C)cc1C1CCN(CC(=O)NCCOc2ccc3occ(C4CCC(=O)NC4=O)c3c2)CC1 (stereo not shown) , which is 104

====

Assay: Pharmacokinetics of the compound in mice
Type: in vivo, C57BL/6 (C57) mice
Details: male, C57BL/6, mouse, plasma, intravenous injection (2 mg/kg)
endpoint: clearance (mL/min/kg)
Write down the numeric answer in mL/min/kg and omit the unit.

Kindly note the recorded clearance for Cc1cc(Nc2ncc(Cl)c(Nc3ccccc3S(=O)(=O)C(C)C)n2)c(OC(C)C)cc1C1CCN(CC(=O)NCCOc2ccc3occ(C4CCC(=O)NC4=O)c3c2)CC1 (stereo not shown) [WX001] , which is 10.3
